This collection of values is drawn from ChEMBL document CHEMBL1130577.

- Test system: H9
- method.summary: Inhibitory activity was evaluated against HIV-1 in H9 and Sup T1 cell lines as assessed by syncytium formation and reverse transcriptase assay
- Format: functional, cell-based
- condition.label: Homo sapiens
pIC50: −log10 of the molar value.
Parameter: pIC50. Scope: all listed entries.

>  <molecule>
CC(C)N(C(=O)c1ccccc1)S(=O)(=O)CC[C@@H]1O[C@@H]1[C@H](Cc1ccccc1)NC(=O)[C@@H](NC(=O)OCc1ccccc1)C(C)(C)S(C)(=O)=O

>  <assayed.system>
H9

>  <pIC50>
7.82

$$$$
>  <molecule>
CC(C)(C)NS(=O)(=O)CC[C@@H]1O[C@@H]1[C@H](Cc1ccccc1)NC(=O)C(CC(N)=O)NC(=O)c1ccc2ccccc2n1 (some centres undefined)

>  <assayed.system>
H9

>  <pIC50>
7.52

$$$$
>  <molecule>
CC(C)C(NC(=O)C[C@@H]1O[C@@H]1[C@H](Cc1ccccc1)NC(=O)[C@H](CC(N)=O)NC(=O)c1ccc2ccccc2n1)C(C)C

>  <assayed.system>
H9

>  <pIC50>
7.70

$$$$
>  <molecule>
CCN(C(C)C)S(=O)(=O)CC[C@@H]1O[C@@H]1[C@H](Cc1ccccc1)NC(=O)[C@@H](NC(=O)c1ccc2ccccc2n1)C(C)(C)S(C)(=O)=O

>  <assayed.system>
H9

>  <pIC50>
8.18

$$$$
>  <molecule>
CCN(c1ccccc1)S(=O)(=O)CC[C@@H]1O[C@@H]1[C@H](Cc1ccccc1)NC(=O)[C@@H](NC(=O)OCc1ccccc1)C(C)(C)S(C)(=O)=O

>  <assayed.system>
H9

>  <pIC50>
7.86

$$$$
>  <molecule>
CCN(c1ccccc1)S(=O)(=O)CC[C@@H]1O[C@@H]1[C@H](Cc1ccccc1)NC(=O)[C@@H](NC(=O)c1ccc2ccccc2n1)C(C)(C)S(C)(=O)=O

>  <assayed.system>
H9

>  <pIC50>
7.97

$$$$
>  <molecule>
CCN(C(C)C)S(=O)(=O)CC[C@@H]1O[C@@H]1[C@H](Cc1ccccc1)NC(=O)[C@@H](NC(=O)c1cccs1)C(C)(C)S(C)(=O)=O

>  <assayed.system>
H9

>  <pIC50>
7.74

$$$$
>  <molecule>
CCN(CC(C)C)S(=O)(=O)CC[C@@H]1O[C@@H]1[C@H](Cc1ccccc1)NC(=O)[C@@H](NC(=O)OCc1ccccc1)C(C)(C)S(C)(=O)=O

>  <assayed.system>
H9

>  <pIC50>
7.97

$$$$
>  <molecule>
CC(C)(C)NS(=O)(=O)CC[C@@H]1O[C@@H]1[C@H](Cc1ccccc1)NC(=O)[C@@H](NC(=O)OCc1ccccc1)C(C)(C)S(C)(=O)=O

>  <assayed.system>
H9

>  <pIC50>
7.69

$$$$
